Each item that follows carries a reported cAMP EC50.
target desc: human MC4R receptor (human, UniProt P32245 1-332)
Sequence (P32245 whole entry): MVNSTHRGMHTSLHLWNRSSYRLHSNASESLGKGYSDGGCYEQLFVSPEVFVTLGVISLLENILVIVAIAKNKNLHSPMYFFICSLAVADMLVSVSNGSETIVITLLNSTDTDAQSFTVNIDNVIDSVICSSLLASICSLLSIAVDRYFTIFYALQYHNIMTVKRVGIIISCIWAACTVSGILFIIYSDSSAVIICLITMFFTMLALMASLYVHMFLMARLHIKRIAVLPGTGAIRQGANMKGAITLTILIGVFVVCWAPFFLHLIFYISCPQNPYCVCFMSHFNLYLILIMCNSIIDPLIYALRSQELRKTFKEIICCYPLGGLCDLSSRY
protocol text: cell-based or functional assay
Starred links: 1 amine or outer side, 2 acyl side, 3 side chain; linkers in the order of their positions; H or OH if unused. Positions of bridges follow the written chain, without caps; N, C: chain ends. Non-standard residues stand in square brackets, D forms with d. Primed or numbered codes have the meaning given here. dTyr(4-OMe)″ = O-methyl-D-tyrosine, COc1ccc(C[C@@H](N[*:1])C(=O)[*:2])cc1; Nle = CCCC[C@H](N)C(=O)O; Aib = CC(C)(N)C(=O)O
Write it as a number; the unit nM goes unstated.

These recorded examples may help you get a feel for the data.
[
  {
    "binder": "Ac-C[Aib]R[dF]RFC-NH2 (disulfide 1-7; SMILES CC(=O)N[C@H]1CSSC[C@@H](C(N)=O)NC(=O)[C@H](Cc2ccccc2)NC(=O)[C@H](CCCNC(=N)N)NC(=O)[C@@H](Cc2ccccc2)NC(=O)[C@H](CCCNC(=N)N)NC(=O)C(C)(C)NC1=O) [CTX-1635]",
    "cAMP EC50 (nM)": 67
  },
  {
    "binder": "Ac-R[Nle]CR[dF]RWC-NH2 (disulfide 3-8; SMILES CCCC[C@H](NC(=O)[C@H](CCCNC(=N)N)NC(C)=O)C(=O)N[C@H]1CSSC[C@@H](C(N)=O)NC(=O)[C@H](Cc2c[nH]c3ccccc23)NC(=O)[C@H](CCCNC(=N)N)NC(=O)[C@@H](Cc2ccccc2)NC(=O)[C@H](CCCNC(=N)N)NC1=O) [CTX-1228]",
    "cAMP EC50 (nM)": 0.2
  }
]

Consider now this further binder.
Look up cAMP EC50 of Ac-RC[Aib]R[dTyr(4-OMe)″]R[dW]C-NH2 (disulfide 2-8) [CTX-1297] and report it.
3.3

Numbers sourced from patent US20240391954A1.
